# TARGET_ENTITY: Cytochrome P450 2D6 (Homo sapiens)
# ASSAY_NAME: Cytochrome P450 family 2 subfamily D member 6 (CYP2D6) small molecule antagonists: luciferase biochemical (cell-free) qHTS assay (AID 1645840); also: nearly all actives have a fitted effect of over 55% in size
# RUN_PARAMETERS: P450-Glo CYP2D6 enzyme, luciferin luminescence, 1 h; series mostly up to 57.4 µM
Results filed as inconclusive are left out. Activity calls are given as the source filed them. Calls follow the shape of the dose curve; as a rule, active = well fitted inhibition curve with a large enough effect in the repeat runs; inconclusive = weak or mixed curves; inactive = flat fitted curve, though single readings scatter.
The reply should name one outcome from TRUE (active), FALSE (inactive)

For this compound, state the assay outcome: Nc1ccc(S(=O)(=O)Nc2ccc(Cl)nn2)cc1
FALSE

For this compound, state the assay outcome: O=C1Nc2ccc(Cl)cc2[C@@](C#CC2CC2)(C(F)(F)F)O1
TRUE

For this compound, state the assay outcome: OC[C@H]1O[C@@H](O[C@@H]2[C@@H](CO)O[C@](O)(CO)[C@H]2O)[C@H](O)[C@@H](O)[C@H]1O
FALSE

For this compound, state the assay outcome: Cc1cc(O)cc2c1O[C@](C)(CCC[C@H](C)CCC[C@H](C)CCCC(C)C)CC2
FALSE

For this compound, state the assay outcome: NC(CSCC(=O)O)C(=O)O (centres undefined)
FALSE

For this compound, state the assay outcome: CC1=C(/C=C/C(C)=C/C=C/C(C)=C/C(=O)O)C(C)(C)CCC1
FALSE

For this compound, state the assay outcome: CCOC(=O)[C@H](CCc1ccccc1)N[C@@H](C)C(=O)N1C(=O)N(C)C[C@H]1C(=O)O
FALSE

For this compound, state the assay outcome: O=C(Oc1ccccc1C(=O)O)c1ccccc1O
FALSE

For this compound, state the assay outcome: O=C(O)c1ccccc1-c1ccc(C(F)(F)F)cc1
FALSE

Taken from PubChem BioAssay (NCATS).
